- System: Human Rac1 (residues 1-177), GMPPNP-loaded (human, UniProt P63000 1-177)
- Test Summary: ITC; POSH_(315-380) (1000 uM) titrated into GMPPNP-loaded Rac1 (125 uM), 35 °C, 50 mM HEPES pH 6.9, 150 mM NaCl, 5 mM MgCl2, 2 mM TCEP; model 'One set of sites'; duplicates
- Setup Conditions: both partners purified
pKd: −log10 of the molar value.

Binder: POSH_(315-380), shorter construct of human POSH comprising MRE1 and MRE2 (domain or fragment) GHMWSQASQNRHSMEISPPVLISSSNPTAAARISELSGLSCSAPSQVHISTTGLIVTPPPSSPVTTGPSF
pKd: 4.34 to 4.68
